# Tested on: 885512-296-R-J2-PDC complex spheroid viability;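 further: spheroids exposed to the compounds for one week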
# run_description: Anticancer human tumor 885512-296-R-J2-PDC patient-derived breast carcinoma cell line growth inhibition [GQUAD]
# measurement_conditions: second compound 10 µM; first compound 1 µM; active compounds read low
Friendly reminder: viability, T/C below 0.2% is criterion met, at or above is criterion not met.

Some entries whose results are on file:
1. CC1COCCN1c1cc(-c2ccnn2C)c2ccnc(-c3ccn[nH]3)c2n1 (stereo not given) + Cc1cnc(CNC(=O)c2c(=O)c3ccc(N4CCCN(C)CC4)nc3n3c2sc2ccccc23)cn1    criterion met
2. CC1COCCN1c1cc(C2(S(C)(=N)=O)CC2)nc(-c2ccnc3[nH]ccc23)n1 (stereo not given) + Cc1cnc(CNC(=O)c2c(=O)c3ccc(N4CCCN(C)CC4)nc3n3c2sc2ccccc23)cn1    criterion met
3. COc1cc(C2c3cc4c(cc3C(OC3OC5COC(C)OC5C(O)C3O)C3COC(=O)C23)OCO4)cc(OC)c1O (stereo not given) + Cc1cnc(CNC(=O)c2c(=O)c3ccc(N4CCCN(C)CC4)nc3n3c2sc2ccccc23)cn1    criterion met
4. C=CC(=O)N1CCN(c2nc(=O)n(-c3c(C)ccnc3C(C)C)c3nc(-c4c(O)cccc4F)c(F)cc23)C(C)C1 (stereo not given) + CN(C)c1ccc(Nc2c3ccc(NC(=O)CCN4CCCC4)cc3nc3cc(NC(=O)CCN4CCCC4)ccc23)cc1    criterion not met

Task item: Could you please tell me whether viability, T/C recorded for CC(C)(O)C1CCC(Nc2ccc3ncc(-c4cccc(C(F)(F)F)c4)n3n2)CC1 (stereo not given) + Cc1[nH]c2ccc(F)cc2c1-c1nc2c3cccnc3c3ncccc3c2[nH]1 is less than 0.2%?
Reply: criterion not met
